- Assayed Target: mvNei1 (Acanthamoeba polyphaga mimivirus, UniProt Q5UQ00)
- Construct: 6His (C); made in house; host or cells: E. coli Rosetta2 (DE3)
- Sequence (Q5UQ00 whole entry): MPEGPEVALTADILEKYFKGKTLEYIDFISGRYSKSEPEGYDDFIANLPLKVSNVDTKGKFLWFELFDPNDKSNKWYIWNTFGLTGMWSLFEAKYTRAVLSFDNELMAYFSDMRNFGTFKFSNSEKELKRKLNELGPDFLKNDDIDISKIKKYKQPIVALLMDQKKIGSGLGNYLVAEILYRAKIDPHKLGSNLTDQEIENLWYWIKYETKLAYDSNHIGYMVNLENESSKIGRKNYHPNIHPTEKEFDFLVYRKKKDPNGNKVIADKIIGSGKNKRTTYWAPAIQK
- Procedure Details: mvNei1 DNA glycosylase/AP lyase activity assay on DHU:G 24-mer duplex
- Assay type: biochemical
- Condition Description: catalytic activity at 37 °C; compound stock in DMSO; DHU:G 24-mer; read-out: IC50app^A (Fpg/Nei enzyme catalysis) mvNEI1
Assay Readout: IC50 (µM)

                                   molecule  assay_readout  unit_text  comparison_symbol  endpoint_result
0  O=c1[nH]c2[nH]c(=S)[nH]c(=S)c2[nH]1 [TX16]           IC50         µM                  =               14
1  FC(F)(F)c1nc(S)c2nc[nH]c2n1 [TX13, 2-trifluoromethyl-6-thiopurine]           IC50         µM                  >              500
2  O=c1[nH]c(=S)[nH]c2nc[nH]c12 [Compound 2TX, 2-thioxanthine, reference compound]           IC50         µM                  >              500
3  O=c1[nH]c(=S)[nH]c2[nH]c(=S)[nH]c12 [TX19]           IC50         µM                  =              124

* * *

- Assayed Target: LlFpg (Lactococcus lactis subsp. cremoris)
- Construct: made in house; host or cells: E. coli BH540 (fpg defective)
- Sequence (P42371 2-273): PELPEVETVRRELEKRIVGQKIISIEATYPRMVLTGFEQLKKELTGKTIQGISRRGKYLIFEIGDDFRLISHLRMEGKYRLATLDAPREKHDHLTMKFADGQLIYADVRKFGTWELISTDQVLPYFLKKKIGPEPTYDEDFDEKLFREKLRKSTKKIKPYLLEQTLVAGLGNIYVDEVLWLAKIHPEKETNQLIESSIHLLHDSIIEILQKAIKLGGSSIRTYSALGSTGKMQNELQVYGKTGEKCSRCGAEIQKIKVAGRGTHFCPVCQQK
- Procedure Details: LlFpg 8-oxoG-DNA glycosylase/AP lyase activity assay (Urea-PAGE radioassay)
- Assay type: biochemical
- Condition Description: catalytic activity at 37 °C; compound stock (redox mixture) in DMSO; 20 nM 8-oxoG:C 24-mer, 2 nM LlFpg; read-out: IC50app^A (Fpg/Nei enzyme catalysis) LlFpg
pIC50: −log10 of the molar value.
Assay Readout: pIC50

In [3]: df
Out[3]:
                                   compound  endpoint_result
0  O=c1[nH]c(=S)[nH]c2nc[nH]c12 [Compound 2TX, 2-thioxanthine, reference compound]             4.32
1       O=c1[nH]c(=S)[nH]c2[nH]c(=S)[nH]c12             4.82
2               FC(F)(F)c1nc(S)c2nc[nH]c2n1             5.12
3       O=c1[nH]c2[nH]c(=S)[nH]c(=S)c2[nH]1             4.39

* * *

- Assayed Target: LlFpg/DNA complex C1 (Lactococcus lactis subsp. cremoris, UniProt P42371)
- Construct: made in house; host or cells: E. coli BH540 (fpg defective)
- Sequence (P42371 2-273, one chain of several): as the sequence (P42371 2-273) above
- Procedure Details: EMSA, Fpg DNA binding to 14-mer [THF:C] duplex, complex C1 (lesion recognition complex, Fpg/DNA 1/1)
- Condition Description: DNA binding at 4 °C; 0.1 nM 14-mer [THF:C], 0.25 nM Fpg; preformed complex; read-out: IC50app^B (Fpg DNA binding) C1
- Procedure: To complement this study, we examined the effect of TXn on the binding of Fpg to a short DNA duplex containing a tetrahydrofuran (THF), a non-cleavable AP site analog. […] Figure 2 The effect of 2TX and TXn on Fpg DNA binding to abasic site-containing DNA. […] Incubation mixtures were then analyzed by electrophoretic mobility shift assay (EMSA), as described in the ‘Materials and Methods’. […] The DNA binding activity was measured using EMSA [37]. […]
pIC50: −log10 of the molar value.
Assay Readout: pIC50

                                   molecule  endpoint_result
0               FC(F)(F)c1nc(S)c2nc[nH]c2n1             5.21
1  O=c1[nH]c(=S)[nH]c2nc[nH]c12 [Compound 2TX, 2-thioxanthine, reference compound]             3.95
2       O=c1[nH]c(=S)[nH]c2[nH]c(=S)[nH]c12             4.77
